Source listed as patent US9415055B2.

# Assay Target: P2X7 receptor (Homo sapiens (Human), UniProt Q99572)
# Sequence (Q99572 whole entry): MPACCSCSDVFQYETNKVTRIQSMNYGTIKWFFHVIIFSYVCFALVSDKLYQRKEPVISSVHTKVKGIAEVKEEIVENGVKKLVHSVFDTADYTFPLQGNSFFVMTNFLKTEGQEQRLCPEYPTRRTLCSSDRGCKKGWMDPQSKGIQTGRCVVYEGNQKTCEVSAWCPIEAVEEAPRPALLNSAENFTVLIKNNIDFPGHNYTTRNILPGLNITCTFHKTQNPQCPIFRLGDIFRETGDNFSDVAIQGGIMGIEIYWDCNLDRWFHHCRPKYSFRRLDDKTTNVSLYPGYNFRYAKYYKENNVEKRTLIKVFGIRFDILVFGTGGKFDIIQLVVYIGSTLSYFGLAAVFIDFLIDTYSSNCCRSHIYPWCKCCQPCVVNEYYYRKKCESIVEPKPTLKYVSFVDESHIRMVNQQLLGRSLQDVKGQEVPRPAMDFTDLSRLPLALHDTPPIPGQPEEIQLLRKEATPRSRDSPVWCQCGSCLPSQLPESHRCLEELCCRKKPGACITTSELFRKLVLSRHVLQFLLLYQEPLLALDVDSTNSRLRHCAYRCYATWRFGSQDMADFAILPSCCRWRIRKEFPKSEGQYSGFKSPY
# Assay Details: P2X7 FLIPR assay: antagonism of BzATP response in 293 HEK cells stably expressing P2X7 receptor
# Experimental Conditions: FLIPR fluorescence (Fluo-4), agonist BzATP, 293 HEK cells stably transfected with P2X7 receptor
Readout Label: IC50 (nM)
One number for each entry, in nM.

Guide cases for IC50, answers given:
Compound | Unit String | IC50
COc1ccc(C(=O)NCC(c2cnc(C(F)(F)F)nc2)N2CCC(F)(F)CC2)c(Cl)c1OC (single isomer, unassigned; (-)) [(−)2-chloro-N-[2-(4,4-difluoro-1-piperidyl)-2-[2-(trifluorom] | nM | 7.8
O=C(NCC(c1ccc(C(F)(F)F)nc1)N1CCOCC1)c1c(F)cccc1F (single isomer, unassigned; (-)) [(−)2,6-difluoro-N-[2-morpholino-2-[6-(trifluoromethyl)-3-pyr] | nM | 480
O=C(NCC(c1cnc(C(F)(F)F)nc1)N1CCC(F)(F)CC1)c1c(Cl)cc(F)cc1Cl (single isomer, unassigned; (+)) [(+)2,6-dichloro-N-[2-(4,4-difluoro-1-piperidyl)-2-[2-(triflu] | nM | 7.5

// each listed compound needs a value for IC50
1. Cc1ccc(C(CNC(=O)c2cccc(F)c2Cl)N2CCC(F)(F)CC2)cn1 (single isomer, unassigned; (-)) [(−)2-chloro-N-[2-(4,4-difluoro-1-piperidyl)-2-(6-methyl-3-pr]
2. Cc1ncc(C(CNC(=O)c2ccccc2Cl)N2CCOCC2)cn1 (single isomer, unassigned; (-)) [(−)2-chloro-N-[2-(2-methylpyrimidin-5-yl)-2-morpholino-ethyl]
3. O=C(NCC(c1ccc(F)cc1)N1CCOCC1)c1cccc(Cl)c1Cl (centres unmarked)
4. O=C(NCC(c1cnc(C(F)(F)F)nc1)N1CCC(F)(F)CC1)c1cc(F)cc(Cl)c1Cl (single isomer, unassigned; (-)) [(−)2,3-dichloro-N-[2-(4,4-difluoro-1-piperidyl)-2-[2-(triflu]
5. Cc1ncc(C(CNC(=O)c2cccc(F)c2Cl)N2CCC(F)(F)CC2)cn1 (single isomer, unassigned; (-)) [(−)2-chloro-N-[2-(4,4-difluoro-1-piperidyl)-2-(2-methylpyrim]

Marked response:
[21, 110, 11, 2.2, 19]

// each listed compound needs a value for IC50
1. CCc1ncc(C(CNC(=O)c2cccc(Cl)c2Cl)N2CCC(F)(F)CC2)cn1 (single isomer, unassigned; (-)) [(−)2,3-dichloro-N-[2-(4,4-difluoro-1-piperidyl)-2-(2-ethylpy]
2. O=C(NCC(c1cnc(C(F)(F)F)nc1)N1CCC(F)(F)CC1)c1c(Cl)ccc(F)c1Cl (single isomer, unassigned; (-)) [(−)2,6-dichloro-N-[2-(4,4-difluoro-1-piperidyl)-2-[2-(triflu]
3. O=C(NCC(c1ccc(C(F)(F)F)nc1)N1CCOCC1)c1c(F)cccc1Cl (single isomer, unassigned; (-)) [(−)2-chloro-6-fluoro-N-(2-morpholino-2-(6-(trifluoromethyl)p]
4. O=C(NCC(c1cncnc1)N1CCOCC1)c1cccc(Cl)c1Cl (centres unmarked)

Marked response:
1. 4.9
2. 4.9
3. 6.1
4. 28

// each listed compound needs a value for IC50
1. Cc1ncc(C(CNC(=O)c2c(Cl)cccc2Cl)N2CCCOCC2)cn1 (centres unmarked)
2. CN(C)c1ncc(C(CNC(=O)c2cccc(Cl)c2Cl)N2CCC(F)(F)CC2)cn1 (centres unmarked)

Marked response:
1. 740
2. 6.6
